Tested System: dipeptidyl peptidase IV from porcine kidney (Sus scrofa, UniProt P22411)
Sequence (P22411 whole entry): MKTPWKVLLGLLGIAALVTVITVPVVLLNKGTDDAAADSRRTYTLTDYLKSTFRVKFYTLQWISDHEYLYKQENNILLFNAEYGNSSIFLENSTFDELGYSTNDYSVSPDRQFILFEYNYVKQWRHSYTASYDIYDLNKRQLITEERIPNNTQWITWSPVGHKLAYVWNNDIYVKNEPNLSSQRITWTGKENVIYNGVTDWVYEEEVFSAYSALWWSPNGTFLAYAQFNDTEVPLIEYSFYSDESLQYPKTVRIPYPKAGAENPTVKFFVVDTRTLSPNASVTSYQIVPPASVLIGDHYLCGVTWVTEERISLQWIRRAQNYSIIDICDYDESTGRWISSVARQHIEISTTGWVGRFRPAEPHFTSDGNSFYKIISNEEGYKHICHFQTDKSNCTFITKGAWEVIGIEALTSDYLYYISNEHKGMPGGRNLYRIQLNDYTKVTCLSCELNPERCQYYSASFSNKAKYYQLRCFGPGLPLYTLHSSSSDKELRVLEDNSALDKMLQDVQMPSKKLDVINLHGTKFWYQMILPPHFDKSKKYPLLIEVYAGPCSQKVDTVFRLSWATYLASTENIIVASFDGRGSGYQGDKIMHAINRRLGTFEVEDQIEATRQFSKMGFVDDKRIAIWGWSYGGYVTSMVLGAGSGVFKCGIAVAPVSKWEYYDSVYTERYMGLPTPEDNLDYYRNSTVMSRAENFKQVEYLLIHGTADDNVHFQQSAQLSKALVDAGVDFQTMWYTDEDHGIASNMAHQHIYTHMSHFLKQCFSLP
Measurement Label: log10 Ki (log10 of the value in nM)
Quick note: numbers are log10 of Ki, with nM as the unit.

CC(C)C(N)C(=O)C1CCCC1 (stereo not shown) [Val-cyclopentyl ketone] = 4.12

Tested system dipeptidyl peptidase IV from porcine kidney (Sus scrofa, UniProt P22411); log10 Ki recorded for NC(=O)CCC(N)C(=O)N1CCSC1 (stereo not shown) [Gln-Thia, glutaminyl thiazolidine] was 3.08

Tested system dipeptidyl peptidase IV from porcine kidney (Sus scrofa, UniProt P22411); log10 Ki recorded for NC(Cc1c[nH]cn1)C(=O)N1CCSC1 (stereo not shown) [H-His-thiazolidine] was 3.26
